# System: CDK4-cyclinD1;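 further: KINOMEscan kinase panel screen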
# MEASUREMENT CONTEXT: concentration: 1 μM, replicates: in singlicate; n = 1
Cut-off 6% on %Inh, inclusive. At or above means condition met; below means condition not met.

Field: example entries. Status: answers known.
>  <MOLECULE>
Cc1csc(-c2nc(Nc3ccncc3)c3ccccc3n2)n1

>  <CAT>
condition met

$$$$
>  <MOLECULE>
Fc1cc(Cl)ccc1Nc1ccnc2cc(I)ccc12

>  <CAT>
condition not met

$$$$
>  <MOLECULE>
COc1ccc(C2=C(Nc3cccc(C(=O)O)c3)C(=O)NC2=O)cc1

>  <CAT>
condition not met

$$$$
>  <MOLECULE>
O=C(Nc1n[nH]c2cc(-c3cccc(F)c3F)ccc12)C1CC1

>  <CAT>
condition not met

$$$$
>  <MOLECULE>
O=c1cc(N2CCOCC2)nc2n(Cc3cccc(Cl)c3Cl)ccn12

>  <CAT>
condition not met

$$$$

Form field: %Inh at least 6%? Entry: Cc1cc(NCC(c2ccccc2)c2ccccc2)nc(NCc2ccc(C(F)(F)F)cc2)n1
condition not met

Hi, just wondering whether Cn1ccc2ncnc(Oc3ccc(NC(=O)Nc4ccccc4)cc3)c21 shows %Inh of 6% or higher.
condition not met

Quick check, %Inh >= 6%? NC(=O)c1nnc2ccccc2c1N
condition met

Answer whether %Inh of O=C(Nc1ccc2c(c1)OCO2)NC1CCN(c2ccnc(Nc3ccc(F)cc3)n2)C1 (stereo not shown) is greater than or equal to 6%.
condition not met

Quick check, %Inh >= 6%? COc1ccc(Nc2nccc(-c3cccc(NC(=O)c4cc5cc(F)ccc5[nH]4)c3)n2)cc1
condition met

Determine whether this molecule has %Inh no lower than 6%: Cc1ccc(NC(=O)Nc2cc(C(C)(C)C)nn2-c2ccccc2)cc1
condition not met

%Inh >= 6% for Cl.Oc1ccc(-c2nc(-c3ccccc3)[nH]c2-c2ccncc2)cc1 ?
condition met

Is %Inh at least 6%? Consider CC1=C(C(=O)Nc2cc3cn[nH]c3cc2F)C(c2ccc(C(F)(F)F)cc2)CC(=O)N1 (stereo not shown)
condition not met

Textbook exercise: given the entry O=C(O)COc1ncnc2cc(-c3ccc4[nH]ncc4c3)sc12 , state whether its %Inh is greater than or equal to 6%.
condition not met

Say whether Cn1ccc2ncnc(Oc3ccc(Nc4nc5ccccc5[nH]4)cc3)c21 shows %Inh of 6% or more.
condition not met

Please check the record COc1ccccc1-c1ccc2c(NC(=O)C3CC3)n[nH]c2n1 and state if its %Inh is at or above 6%.
condition met

Is %Inh at least 6%? Consider Cn1ccc2ncnc(Oc3cccc(C(=O)Nc4ccccc4)c3)c21
condition met
